Where do these numbers come from? They come from patent US12240854B2.

Target: TRAF6WTStrepII-Ubc13FH interaction (Homo sapiens, UniProt Q9Y4K3)
Construct: RING-Zincfinger1 (RZ1) domain (residues 50-159) of human TRAF6 wildtype
Assay: ALPHAScreen TRAF6-Ubc13 interaction assay
Conditions: TRAF6 100 nM, Ubc13FH 75 nM; class symbols; read-out: IC50 Alphascreen (inhibition of TRAF6-UBC13 interaction)
Text: In order to identify small molecules that specifically target the RZ1 domain of TRAF6 and thereby prevent its binding to Ubc13, the ALPHAScreen technology (PerkinElmer) was chosen to detect TRAF6WTStrepII-Ubc13FH interaction in High-Throughput-Screenings as well as Structure Activity Relationship (SAR) analysis. For performance of an automated ALPHAScreen assay, all following components were pre-diluted in ALPHAScreen buffer (1×PBS, 0.5% BSA, 0.01% Tween-20). […]
Property measured: IC50

Cc1nn(-c2ccc3nnc(C)n3n2)c(C)c1CCC(=O)N1CCN(Cc2ccc(C(F)(F)F)cc2)CC1 :: ≤ 30 µM
Cc1nn(-c2ccc3nnc(C)n3n2)c(C)c1CCC(=O)N1CCN(Cc2ccc(F)c(F)c2)CC1 :: ≤ 30 µM
Cc1nn(-c2ccc3nnc(C)n3n2)c(C)c1CCC(=O)N1CCN(Cc2cccc(-c3nnn[nH]3)c2C)CC1 :: ≤ 3 µM
Cc1nn(-c2ccc3nnc(C)n3n2)c(C)c1CCC(=O)N1CCN(Cc2ccc(-c3nnn[nH]3)cc2F)CC1 :: ≤ 10 µM
Cc1nn(-c2ccc3nnc(C)n3n2)c(C)c1CCC(=O)N1CCN(Cc2cccc(C#N)c2C)CC1 :: ≤ 3 µM

IC50 measured on Cc1nn(-c2ccc3nnc(C)n3n2)c(C)c1CCC(=O)N1CCN(Cc2cc(F)c(O)c(F)c2)CC1 = ≤ 3 µM

Record summary for Cc1nn(-c2ccc3nnc(C)n3n2)c(C)c1CCC(=O)N1CCN(Cc2ccc(C#N)cc2Cl)CC1 : reported IC50 = ≤ 30 µM

* * *

Molecular target: TRAF6WTStrepII-Ubc13FH interaction (Homo sapiens)
Construct: RING-Zincfinger1 (RZ1) domain (residues 50-159) of human TRAF6 wildtype
Sequence (Q9Y4K3 with tags, fused parts or gaps): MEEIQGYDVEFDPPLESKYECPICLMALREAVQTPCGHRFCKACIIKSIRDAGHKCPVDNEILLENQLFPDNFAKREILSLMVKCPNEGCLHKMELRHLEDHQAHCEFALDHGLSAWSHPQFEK
Assay: ALPHAScreen TRAF6-Ubc13 interaction assay
Conditions: TRAF6 100 nM, Ubc13FH 75 nM; class symbols; read-out: IC50 Alphascreen (inhibition of TRAF6-UBC13 interaction)
pIC50: −log10 of the molar value.
Property measured: pIC50

Cc1nn(-c2ccc3nnc(C)n3n2)c(C)c1CCC(=O)N1CCN(Cc2ccc3cc[nH]c3c2)CC1 :: ≥ 5.00
Cc1nn(-c2ccc3nnc(C)n3n2)c(C)c1CCC(=O)N1CCN(Cc2ccc(C(N)=O)cc2)CC1 :: ≥ 5.00
Cc1nn(-c2ccc3nnc(C)n3n2)c(C)c1CCC(=O)N1CCN(Cc2cccc(F)c2)CC1 :: ≥ 5.00

pIC50 for CC(=O)c1ccc(CN2CCN(C(=O)CCc3c(C)nn(-c4ccc5nnc(C)n5n4)c3C)CC2)cc1 is ≥ 5.00

Record Cc1ccc(CN2CCN(C(=O)CCc3c(C)nn(-c4ccc5nnc(C)n5n4)c3C)CC2)cc1 , field pIC50: ≥ 4.52

// recorded pIC50 for CC(=O)c1cccc(CN2CCN(C(=O)CCc3c(C)nn(-c4ccc5nnc(C)n5n4)c3C)CC2)c1 : ≥ 5.52

Data point: Cc1cc(CN2CCN(C(=O)CCc3c(C)nn(-c4ccc5nnc(C)n5n4)c3C)CC2)cc([N+](=O)[O-])c1 ; pIC50 = ≥ 5.52

* * *

Biological target: TRAF6WTStrepII-Ubc13FH interaction (Homo sapiens, UniProt Q9Y4K3)
Construct: RING-Zincfinger1 (RZ1) domain (residues 50-159) of human TRAF6 wildtype
Sequence (Q9Y4K3 with tags, fused parts or gaps): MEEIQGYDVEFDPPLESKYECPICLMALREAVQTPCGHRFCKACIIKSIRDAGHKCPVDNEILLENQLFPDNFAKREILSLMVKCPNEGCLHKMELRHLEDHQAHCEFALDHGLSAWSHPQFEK
Test: ALPHAScreen TRAF6-Ubc13 interaction assay
Settings: TRAF6 100 nM, Ubc13FH 75 nM; class symbols; read-out: IC50 Alphascreen (inhibition of TRAF6-UBC13 interaction)
Reported IC50 is given for each of the following molecules.

Cc1nn(-c2ccc3nnc(C)n3n2)c(C)c1CCC(=O)N1CCN(Cc2ccc(C#N)cc2F)CC1 :: ≤ 10 µM

In plain terms, Cc1nn(-c2ccc3nnc(C)n3n2)c(C)c1CCC(=O)N1CCN(Cc2c(Cl)cccc2Cl)CC1 has a documented IC50 of ≤ 10 µM

Entry Cc1nn(-c2ccc3nnc(C)n3n2)c(C)c1CCC(=O)N1CCN(Cc2cccc([N+](=O)[O-])c2)CC1 — recorded IC50 = ≤ 10 µM

Item: Cc1nn(-c2ccc3nnc(C)n3n2)c(C)c1CCC(=O)N1CCN(Cc2ccc(O)c(Cl)c2)CC1 | IC50: ≤ 3 µM

Input Cc1nn(-c2ccc3nnc(C)n3n2)c(C)c1CCC(=O)N1CCN(Cc2ccc(C#N)cc2)CC1 . Output IC50: ≤ 30 µM

For reference, reported IC50 for Cc1nn(-c2ccc3nnc(C)n3n2)c(C)c1CCC(=O)N1CCN(Cc2cccc(-c3ccccc3)c2)CC1 stands at ≤ 10 µM

Value of IC50 reported for the molecule Cc1nn(-c2ccc3nnc(C)n3n2)c(C)c1CCC(=O)N1CCC(C)(Cc2ccccc2)C1 (stereo not shown) is ≤ 3 µM

* * *

biological target: TRAF6WTStrepII-Ubc13FH interaction (Homo sapiens, UniProt Q9Y4K3); construct: RING-Zincfinger1 (RZ1) domain (residues 50-159) of human TRAF6 wildtype; assay: ALPHAScreen TRAF6-Ubc13 interaction assay; conditions: TRAF6 100 nM, Ubc13FH 75 nM; class symbols; read-out: IC50 Alphascreen (inhibition of TRAF6-UBC13 interaction)
Listed below: IC50 values for each entry.

These recorded examples may help you get a feel for the data.
Cc1nn(-c2ccc3nnc(C)n3n2)c(C)c1CCC(=O)N1CCN(Cc2ccc(N(C)C)cc2)CC1 :: ≤ 10 µM
Cc1nn(-c2ccc3nnc(C(F)(F)F)n3n2)c(C)c1CCC(=O)N1CCN(Cc2cc(-c3nnn[nH]3)ccc2Cl)CC1 :: ≤ 3 µM
Cc1nn(-c2ccc3nnc(C(F)(F)F)n3n2)c(C)c1CCC(=O)N1CCN(Cc2ccc(C#N)cc2Cl)CC1 :: ≤ 30 µM

Documented IC50 of Cc1nn(-c2ccc3nnc(C)n3n2)c(C)c1CCC(=O)N1CCN(Cc2ccc(F)c(C(F)(F)F)c2)CC1 : ≤ 10 µM

The molecule Cc1nn(-c2ccc3nnc(C)n3n2)c(C)c1CCC(=O)N1CCN(Cc2ccc(-c3nnn[nH]3)cc2)CC1 showed IC50 equal to ≤ 3 µM

Looking up Cc1nn(-c2ccc3nnc(C)n3n2)c(C)c1CCC(=O)N1CCN(Cc2ccc(S(N)(=O)=O)cc2)CC1 , I found its IC50 recorded as ≤ 3 µM

The molecule Cc1cc(C(=O)O)ccc1CN1CCN(C(=O)CCc2c(C)nn(-c3ccc4nnc(C)n4n3)c2C)CC1 showed IC50 equal to ≤ 3 µM

* * *

biological target: TRAF6WTStrepII-Ubc13FH interaction (Homo sapiens, UniProt Q9Y4K3); construct: RING-Zincfinger1 (RZ1) domain (residues 50-159) of human TRAF6 wildtype; assay: ALPHAScreen TRAF6-Ubc13 interaction assay; conditions: TRAF6 100 nM, Ubc13FH 75 nM; class symbols; read-out: IC50 Alphascreen (inhibition of TRAF6-UBC13 interaction)
Property measured: IC50

Previously resolved entries follow.
Cc1nn(-c2ccc3nnc(C)n3n2)c(C)c1CCC(=O)N1CCN(Cc2ccc([N+](=O)[O-])cc2)CC1 [Example 115] :: ≤ 3 µM
Cc1nn(-c2ccc3nnc(C)n3n2)c(C)c1CCC(=O)N1CCN(Cc2cc(F)cc(-c3nnn[nH]3)c2)CC1 [Example 177] :: ≤ 3 µM
Cc1nn(-c2ccc3nnc(C(F)(F)F)n3n2)c(C)c1CCC(=O)N1CCN(Cc2cc(F)cc(-c3nnn[nH]3)c2)CC1 [Example 178] :: ≤ 3 µM
Cc1nn(-c2ccc3nnc(C)n3n2)c(C)c1CCC(=O)N1CCC(Oc2ccccc2)CC1 [Example 168] :: ≤ 10 µM
Cc1nn(-c2ccc3nnc(C)n3n2)c(C)c1CCC(=O)N1CCN(Cc2cccc(C#N)c2)CC1 [Example 126] :: ≤ 3 µM

The observed IC50 for Cc1nn(-c2ccc3nnc(C)n3n2)c(C)c1CCC(=O)N1CCN(Cc2cccc3ncccc23)CC1 [Example 138] when tested with TRAF6WTStrepII-Ubc13FH interaction (Homo sapiens, UniProt Q9Y4K3) stands at ≤ 10 µM

Cc1nn(-c2ccc3nnc(C)n3n2)c(C)c1CCC(=O)N1CCN(Cc2cccc(C(N)=O)c2)CC1 [Example 151] tested on TRAF6WTStrepII-Ubc13FH interaction (Homo sapiens, UniProt Q9Y4K3) gave IC50: ≤ 10 µM
